# maps each entry to its EC50
Target: oxytocin receptor (Homo sapiens)
Construct: expressed in transfected cells; host or cells: CHO cell lines
Sequence (P30559 whole entry, species assumed): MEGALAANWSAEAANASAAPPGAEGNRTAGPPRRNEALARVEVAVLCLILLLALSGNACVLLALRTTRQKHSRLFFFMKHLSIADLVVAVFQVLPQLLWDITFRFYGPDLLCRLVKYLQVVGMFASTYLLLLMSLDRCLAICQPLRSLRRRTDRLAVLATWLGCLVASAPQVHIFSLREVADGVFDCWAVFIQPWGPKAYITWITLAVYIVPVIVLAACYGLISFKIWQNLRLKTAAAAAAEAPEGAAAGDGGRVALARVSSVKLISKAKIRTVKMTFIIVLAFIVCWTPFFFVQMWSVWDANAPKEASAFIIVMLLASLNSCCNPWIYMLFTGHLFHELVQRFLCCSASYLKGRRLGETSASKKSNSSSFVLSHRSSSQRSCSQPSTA
Test: IP-One IP1 accumulation assay in CHO cell lines expressing oxytocin receptor (agonist activation)
Type: cell-based
Conditions: n=3; selectivity table, measured as described in example 2; read-out: OT-R (Ago) EC50
Expressed in nM, but write only the number.

                                   compound  units_label  obs_value
0  Cc1cc(C(=O)N2Cc3cnn(C)c3Nc3ccccc32)ccc1CNC(=O)N1C[C@@H](n2cc(CO)nn2)C[C@H]1C(=S)N(C)C [Compound 6]           nM       1.12

Proceed to the following item.
## Task Which EC50 value is on record for Cc1cc(C(=O)N2Cc3cnn(C)c3Nc3ccccc32)ccc1CNC(=O)N1CCC[C@H]1C(=S)N(C)C [Reference, reference compound] ?
## Result 45.1
